Target: T1, h-mtTFA1-179 (Homo sapiens, UniProt Q00059 43-221)
T1 sequence: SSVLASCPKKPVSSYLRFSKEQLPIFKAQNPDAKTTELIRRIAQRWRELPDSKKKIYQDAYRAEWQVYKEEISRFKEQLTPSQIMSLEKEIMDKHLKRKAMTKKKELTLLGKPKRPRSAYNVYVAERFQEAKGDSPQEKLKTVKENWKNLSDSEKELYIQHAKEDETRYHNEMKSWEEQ
Assay: EMSA
observed-property: pKd
A value of pKd is the negative decimal logarithm of a concentration given in moles per litre.

Answer with the recorded pKd of 30 bp LSP DNA, 32P-labeled (dsDNA) DNA 1: GTGTTAGTTGGGGGGTGACTGTTAAAAGTG DNA 2: CACTTTTAACAGTCACCCCCCAACTAACAC only.
7.92

Every entry's value here was drawn from paper PMC2691818.
